Test system: Prostaglandin G/H synthase 1 (Homo sapiens)
Assay summary: IC50 value against Prostaglandin G/H synthase 1 of human platelet rich plasma
pIC50: −log10 of the molar value.
Reported endpoint: pIC50

Completed entries (count: 5):
CNc1nnc(-c2cc(C(C)(C)C)c(O)c(C(C)(C)C)c2)s1 : 6.52
CCSc1nnc(-c2cc(C(C)(C)C)c(O)c(C(C)(C)C)c2)s1 : 5.51
CCCSc1nnc(-c2cc(C(C)(C)C)c(O)c(C(C)(C)C)c2)s1 : 5.39
CC(C)(C)c1cc(-c2nnc(NC#N)s2)cc(C(C)(C)C)c1O : 5.44
CC(C)(C)c1cc(-c2nnc(O)s2)cc(C(C)(C)C)c1O : 5.39

P = CCCOc1nnc(-c2cc(C(C)(C)C)c(O)c(C(C)(C)C)c2)s1
Q = CC(C)(C)c1cc(-c2nnc(N)s2)cc(C(C)(C)C)c1O
R = CSc1nnc(-c2nc(C(C)(C)C)c(O)c(C(C)(C)C)n2)s1
S = CCOc1nnc(-c2cc(C(C)(C)C)c(O)c(C(C)(C)C)c2)s1
Prompt line: Sort (4 compounds) by pIC50: min first. List the labels according to the requested ordering.
Response line: P, S, Q, R
(P: 5.44, S: 5.92, Q: 6.28, R: 6.70)

P = CC(C)(C)c1cc(-c2nnc(N=C(N)N)s2)cc(C(C)(C)C)c1O
Q = COc1c(C(C)(C)C)cc(-c2nnc(SC)s2)cc1C(C)(C)C
Prompt line: Which has the smaller recorded pIC50, P or Q ? Please respond with the label that marks your chosen entry.
Response line: P
(P: 5.55, Q: 6.11)

====

Species on record: Rattus norvegicus
Assay summary: Lesion frequency was measured in rats.
Format: functional
Reported endpoint: Lesion frequency (%)
Number in %, nothing else.

CC(C)(C)c1cc(-c2nnc(NC#N)s2)cc(C(C)(C)C)c1O : 12.5
CS(=O)(=O)Nc1ccc([N+](=O)[O-])cc1OC1CCCCC1 [NS-398] : 0
CCSc1nnc(-c2cc(C(C)(C)C)c(O)c(C(C)(C)C)c2)s1.C[N+](C)(C)CC[O-] : 12.5

Prompt line: Item under review: COc1ccc2c(c1)c(CC(=O)O)c(C)n2C(=O)c1ccc(Cl)cc1 [INDOMETHACIN] . Reported Lesion frequency?
Response line: 75

Prompt line: Item under review: CC(C)(C)c1cc(-c2nsc(NC#N)n2)cc(C(C)(C)C)c1O . Reported Lesion frequency?
Response line: 87.5

Prompt line: Item under review: CS(=O)(=O)c1ccc(-n2nc(C(F)(F)F)cc2-c2ccc(F)cc2)cc1 [SC-58125] . Reported Lesion frequency?
Response line: 0

====

Species: Rattus norvegicus
Assay summary: ED50 was measured by CFE assay method.
Format: functional
Reported endpoint: ED50 (mg/kg)
Number in mg/kg, nothing else.

Completed entries (count: 3):
CC(C)(C)c1cc(-c2nsc(NC#N)n2)cc(C(C)(C)C)c1O : 5.8
COc1ccc2c(c1)c(CC(=O)O)c(C)n2C(=O)c1ccc(Cl)cc1 : 1.6
CS(=O)(=O)Nc1ccc([N+](=O)[O-])cc1OC1CCCCC1 : 0.61

Prompt line: Item under review: CCSc1nnc(-c2cc(C(C)(C)C)c(O)c(C(C)(C)C)c2)s1.C[N+](C)(C)CC[O-] . Reported ED50?
Response line: 7.1

Prompt line: Item under review: CC(C)(C)c1cc(-c2nnc(NC#N)s2)cc(C(C)(C)C)c1O . Reported ED50?
Response line: 7.7

====

Test system: Prostaglandin G/H synthase 1 (Homo sapiens)
Assay summary: IC50 value against Prostaglandin G/H synthase 1 of human platelet rich plasma
Reported endpoint: IC50 (µM)

CSc1nnc(-c2cc(C(C)(C)C)c(O)c(C(C)(C)C)c2)s1 : 0.18
CC(C)(C)c1cc(-c2nnc(N=C(N)N)o2)cc(C(C)(C)C)c1O : 2.8
CC(C)(C)c1cc(-c2nsc(NC#N)n2)cc(C(C)(C)C)c1O : 1.2
CC(C)Sc1nnc(-c2cc(C(C)(C)C)c(O)c(C(C)(C)C)c2)s1 : 13.6
CC(C)(C)c1cc(-c2noc(NC#N)n2)cc(C(C)(C)C)c1O : 1.2
CC(C)(C)c1cc(-c2nnc(NC#N)o2)cc(C(C)(C)C)c1O : 5.8
CSc1nnc(-c2cc(C(C)(C)C)c(O)c(C(C)(C)C)c2)o1 : 1.2
CC(C)(C)c1cc(-c2nc(=O)s[nH]2)cc(C(C)(C)C)c1O : 0.43
CC(C)(C)c1cc(-c2nsc(N=C(N)N)n2)cc(C(C)(C)C)c1O : 1.7
CC(C)(C)c1cc(-c2nnc(NN)s2)cc(C(C)(C)C)c1O : 3.2

1 = COc1nnc(-c2cc(C(C)(C)C)c(O)c(C(C)(C)C)c2)s1
2 = CC[S+]([O-])c1nnc(-c2cc(C(C)(C)C)c(O)c(C(C)(C)C)c2)s1 (configuration not stated)
Prompt line: Which has the smaller recorded IC50, 1 or 2 ? Please respond with the label that marks your chosen entry.
Response line: 1
(1: 0.2 µM, 2: 14.6 µM)

====

Test system: Prostaglandin G/H synthase 2 (Mus musculus, UniProt Q05769)
Sequence (Q05769 whole entry): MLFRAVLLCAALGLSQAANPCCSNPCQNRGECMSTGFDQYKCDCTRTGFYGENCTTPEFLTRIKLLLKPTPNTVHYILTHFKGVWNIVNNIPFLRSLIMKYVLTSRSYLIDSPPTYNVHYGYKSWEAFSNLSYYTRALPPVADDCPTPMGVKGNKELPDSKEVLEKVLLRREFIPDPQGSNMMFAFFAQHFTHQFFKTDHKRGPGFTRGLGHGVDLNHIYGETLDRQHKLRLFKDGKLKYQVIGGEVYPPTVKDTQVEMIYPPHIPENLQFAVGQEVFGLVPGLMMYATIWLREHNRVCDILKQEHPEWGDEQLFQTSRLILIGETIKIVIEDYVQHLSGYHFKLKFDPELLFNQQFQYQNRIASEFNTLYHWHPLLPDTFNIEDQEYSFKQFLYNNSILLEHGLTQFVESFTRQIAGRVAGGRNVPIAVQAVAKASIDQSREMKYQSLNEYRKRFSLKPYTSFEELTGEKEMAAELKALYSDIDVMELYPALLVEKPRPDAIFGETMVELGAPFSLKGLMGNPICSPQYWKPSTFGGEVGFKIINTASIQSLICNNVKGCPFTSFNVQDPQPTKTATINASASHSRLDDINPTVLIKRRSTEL
pIC50: −log10 of the molar value.
Reported endpoint: pIC50

Completed entries (count: 4):
CC(C)(C)c1cc(-c2nnc(S)o2)cc(C(C)(C)C)c1O : 6.04
CC(C)(C)c1cc(-c2nnc(S)s2)cc(C(C)(C)C)c1O : 6.46
CC(C)(C)c1cc(-c2nsc(NC#N)n2)cc(C(C)(C)C)c1O : 7.59
CC[S+]([O-])c1nnc(-c2cc(C(C)(C)C)c(O)c(C(C)(C)C)c2)s1 (stereo unspecified) : 6.64

a = COc1c(C(C)(C)C)cc(-c2nnc(S)s2)cc1C(C)(C)C
b = CCOc1nnc(-c2cc(C(C)(C)C)c(O)c(C(C)(C)C)c2)s1
Prompt line: Which has the smaller recorded pIC50, a or b ? Please respond with the label that marks your chosen entry.
Response line: a

====

Test system: Prostaglandin G/H synthase 1 (Homo sapiens)
Assay summary: IC50 value against Prostaglandin G/H synthase 1 of human platelet rich plasma
pIC50: −log10 of the molar value.
Reported endpoint: pIC50

CCSc1nnc(-c2cc(C(C)(C)C)c(O)c(C(C)(C)C)c2)o1 : 5.72
CSc1nc(-c2cc(C(C)(C)C)c(O)c(C(C)(C)C)c2)ns1 : 5.44
CCSc1nnc(-c2nc(C(C)(C)C)c(O)c(C(C)(C)C)n2)s1 : 6.17
CC(C)(C)c1cc(-c2nnc(O)o2)cc(C(C)(C)C)c1O : 5.49

====

Test system: Prostaglandin G/H synthase 1 (Homo sapiens, UniProt P23219)
Sequence (P23219 whole entry): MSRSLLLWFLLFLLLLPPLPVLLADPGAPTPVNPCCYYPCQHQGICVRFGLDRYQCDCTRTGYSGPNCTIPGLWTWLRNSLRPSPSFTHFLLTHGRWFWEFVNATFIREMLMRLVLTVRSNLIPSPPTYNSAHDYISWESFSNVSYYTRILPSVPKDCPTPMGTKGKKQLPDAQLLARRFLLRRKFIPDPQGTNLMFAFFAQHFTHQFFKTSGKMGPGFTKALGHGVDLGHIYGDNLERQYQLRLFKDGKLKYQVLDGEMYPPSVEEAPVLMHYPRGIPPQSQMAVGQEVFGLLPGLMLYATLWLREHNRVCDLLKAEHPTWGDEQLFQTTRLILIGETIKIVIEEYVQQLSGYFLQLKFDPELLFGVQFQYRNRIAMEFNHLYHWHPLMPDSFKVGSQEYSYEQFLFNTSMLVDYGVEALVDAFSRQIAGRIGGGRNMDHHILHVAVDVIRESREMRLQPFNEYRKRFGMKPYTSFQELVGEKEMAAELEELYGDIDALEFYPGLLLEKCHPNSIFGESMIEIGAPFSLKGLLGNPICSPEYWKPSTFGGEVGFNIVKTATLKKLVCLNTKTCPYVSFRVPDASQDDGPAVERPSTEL
Assay summary: IC50 value against Prostaglandin G/H synthase 1 of human platelet rich plasma
pIC50: −log10 of the molar value.
Reported endpoint: pIC50

Completed entries (count: 5):
CC(C)(C)c1cc(-c2nnc(SCc3ccccc3)s2)cc(C(C)(C)C)c1O : < 4.70
CCCSc1nnc(-c2cc(C(C)C)c(O)c(C(C)C)c2)s1 : < 4.70
CC(C)(C)c1cc(-c2nnc(SCCC(=O)O)s2)cc(C(C)(C)C)c1O : < 4.70
COc1c(C(C)(C)C)cc(-c2nnc(S)s2)cc1C(C)(C)C : < 4.70
CC(C)(C)c1cc(-c2nnc(S)s2)cc(C(C)(C)C)c1O : < 4.70

Prompt line: Item under review: CCSc1nnc(-c2cc(C(C)C)c(O)c(C(C)C)c2)s1 . Reported pIC50?
Response line: < 4.70

Prompt line: Item under review: CCN(CC)CCSc1nnc(-c2cc(C(C)(C)C)c(O)c(C(C)(C)C)c2)s1 . Reported pIC50?
Response line: < 4.70

Prompt line: Item under review: CC(C)Oc1nnc(-c2cc(C(C)(C)C)c(O)c(C(C)(C)C)c2)s1 . Reported pIC50?
Response line: 5.35

Prompt line: Item under review: COC(=O)CCSc1nnc(-c2cc(C(C)(C)C)c(O)c(C(C)(C)C)c2)s1 . Reported pIC50?
Response line: 5.00

Prompt line: Item under review: CCCSc1nnc(-c2cc(C(C)(C)C)c(O)c(C(C)(C)C)c2)o1 . Reported pIC50?
Response line: 5.72

====

Prostaglandin G/H synthase 2 (Mus musculus): recorded pIC50 for assorted molecules
pIC50: −log10 of the molar value.
Reported endpoint: pIC50

Completed entries (count: 2):
CC(C)(C)c1cc(-c2nnc(N=C(N)N)o2)cc(C(C)(C)C)c1O : 6.48
CSc1nnc(-c2nc(C(C)(C)C)c(O)c(C(C)(C)C)n2)s1 : 7.59

1 = CSc1nc(-c2cc(C(C)(C)C)c(O)c(C(C)(C)C)c2)ns1
2 = CC(C)Sc1nnc(-c2cc(C(C)(C)C)c(O)c(C(C)(C)C)c2)s1
Prompt line: Which entry has a larger number for pIC50, 1 or 2 ? Please respond with the label that marks your chosen entry.
Response line: 1
(1: 6.59, 2: 5.07)
